The reported numbers originate from the supplement of paper PMC7877785.

# Protocol summary: self-splicing fitness, log relative to wild type (ln ratio); higher = more splicing; Tetrahymena group I intron in knt gene, E. coli kanamycin selection, DiMSum; sequences stand for … in CUCUCU…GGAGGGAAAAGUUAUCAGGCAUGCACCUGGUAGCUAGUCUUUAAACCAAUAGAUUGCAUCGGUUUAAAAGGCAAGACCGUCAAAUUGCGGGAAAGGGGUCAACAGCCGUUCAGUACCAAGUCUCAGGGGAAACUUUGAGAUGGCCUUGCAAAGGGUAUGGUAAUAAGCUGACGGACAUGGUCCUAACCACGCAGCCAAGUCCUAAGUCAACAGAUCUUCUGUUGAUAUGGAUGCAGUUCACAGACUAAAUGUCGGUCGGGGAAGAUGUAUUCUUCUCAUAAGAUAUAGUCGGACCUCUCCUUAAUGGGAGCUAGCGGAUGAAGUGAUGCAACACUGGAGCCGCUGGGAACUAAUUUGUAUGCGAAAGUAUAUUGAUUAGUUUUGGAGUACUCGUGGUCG;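 also: selection with 25 µg/mL kanamycin versus none on LB agar overnight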
# Cond: 37 °C
Note to self: values exactly at -1 are satisfied. So self-splicing fitness (ln) at or above -1 is satisfied, below is not satisfied.

Monomer sequence	Assigned class
GCAGAGCAAUAUUACGCAGA	not satisfied
GGCCAGCAAUAUUACGGAGC	satisfied
UGUCAGCAAUAUUACGGUCG	satisfied
AGAAAGCAAUAUUACGCGCA	satisfied
AAAUAGCAAUAUUACGACCG	satisfied
AUGAAGCAAUAUUACGCAAG	satisfied
CCCUAGCAAUAUUACGCCGA	not satisfied
AUCCAGCAAUAUUACGGAAC	not satisfied
UCAAAGCAAUAUUACGGAGU	not satisfied
CAGAAGCAAUAUUACGUUCC	not satisfied
UGGAAGCAAUAUUACGCAGU	not satisfied
GCUGAGCAAUAUUACGUUCU	satisfied
GAUGAGCAAUAUUACGUCAA	not satisfied
GGGUAGCAAUAUUACGCUCA	satisfied

* * *

The entries below come with measured self-splicing fitness (ln) values attached.
# Protocol summary: self-splicing fitness, log relative to wild type (ln ratio); higher = more splicing; Tetrahymena group I intron in knt gene, E. coli kanamycin selection, DiMSum; sequences stand for … in CUCUCU…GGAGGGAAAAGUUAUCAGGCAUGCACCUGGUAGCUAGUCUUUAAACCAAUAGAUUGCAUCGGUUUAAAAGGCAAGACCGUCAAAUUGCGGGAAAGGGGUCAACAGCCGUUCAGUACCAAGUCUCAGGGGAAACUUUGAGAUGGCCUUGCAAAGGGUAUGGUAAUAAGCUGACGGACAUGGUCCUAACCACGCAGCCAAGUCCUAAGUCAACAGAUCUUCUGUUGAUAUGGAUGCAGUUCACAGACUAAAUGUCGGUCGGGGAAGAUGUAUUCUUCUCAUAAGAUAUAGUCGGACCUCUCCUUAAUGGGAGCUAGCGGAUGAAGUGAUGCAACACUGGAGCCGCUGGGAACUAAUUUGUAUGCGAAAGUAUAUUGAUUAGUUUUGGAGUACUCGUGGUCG
# Cond: 30 °C

Monomer sequence	self-splicing fitness (ln)
AACAAGCAAUAUUACGUGGA	-2.59
ACGAAGCAAUAUUACGUCUU	-2.32
CAGGAGCAAUAUUACGGAAA	-2.58
ACCGAGCAAUAUUACGAUGC	-1.97
UCGUAGCAAUAUUACGUUUU	-2.58
CUAUAGCAAUAUUACGCUUA	-2.47
AUUUAGCAAUAUUACGGCCC	-1.06
UUCCAGCAAUAUUACGGUCU	-2.54
UUGUAGCAAUAUUACGUCGU	-3.78
GCUAAGCAAUAUUACGAUUC	-0.0116
CGGAAGCAAUAUUACGUACA	-0.615
CUUGAGCAAUAUUACGGGGA	-3.27
AUGCAGCAAUAUUACGGGUU	-1.98
GUAAAGCAAUAUUACGCCAA	-0.7
GGGCAGCAAUAUUACGGGAU	-4.22
CUCAAGCAAUAUUACGCUGU	-3.74
AUUUAGCAAUAUUACGCACU	0.177
AGCCAGCAAUAUUACGGGAC	-2.67
UCGCAGCAAUAUUACGCACA	-0.0778
AUCGAGCAAUAUUACGCCCG	-3.48
GUCGAGCAAUAUUACGCUUU	-1.81
